# Protocol: in vivo
# Conditions Used: rat, oral route, male rats CD1, fasting 16 hours, mortality in seven days
Counter-ions that a name gives are not always drawn.
Range-based classes on measured LD50 at 168 h: lower level = under 100 mg/kg, middle level = from 100 mg/kg up to 200 mg/kg, upper level = 200 mg/kg and over

{"Molecule": "CCCCCN1CCC=C(C=NOC)C1", "Discrete Label": "middle level"}
{"Molecule": "C#CCON=CC1=CCCN(C)C1", "Discrete Label": "lower level"}
{"Molecule": "CC(C)ON=CC1=CCCN(C)C1 [Example 4, hydrochloride]", "Discrete Label": "upper level"}
{"Molecule": "CCON=CC1=CCCN(C)C1.Cl", "Discrete Label": "upper level"}
{"Molecule": "CCCCN1CCC=C(C=NOC)C1", "Discrete Label": "lower level"}
{"Molecule": "C=CCN1CCC=C(C=NOC)C1", "Discrete Label": "middle level"}
{"Molecule": "CN(C)CCON=CC1=CCCN(C)C1", "Discrete Label": "upper level"}
{"Molecule": "CC(=O)ON=CC1=CCCN(C)C1", "Discrete Label": "upper level"}
{"Molecule": "CON=CC1=CCCNC1.Cl", "Discrete Label": "lower level"}

* * *

Each record here notes measured variation of the body temperature.
# Protocol: Duration of action: variations of the body temperature
# Type: in vivo, mouse
# Conditions Used: sc, 180 minutes; dose mg/kg: Example 3 0,15; 7 1,25; 8 1; 10 0,75; arecoline HBr 3,5

{"Molecule": "COC(=O)C1=CCCN(C)C1 [Arecoline HBr, reference compound]", "variation of the body temperature": "+0,2 °C"}
{"Molecule": "C=CCN1CCC=C(C=NOC)C1", "variation of the body temperature": "+0,1 °C"}
{"Molecule": "CCCN1CCC=C(C=NOC)C1", "variation of the body temperature": "-0,1 °C"}
{"Molecule": "CCN1CCC=C(C=NOC)C1.Cl", "variation of the body temperature": "-0,1 °C"}
{"Molecule": "CON=CC1=CCCNC1.Cl", "variation of the body temperature": "-0,1 °C"}

* * *

# Protocol: Duration of action: variations of the body temperature
# Assay type: in vivo, mouse
# Conditions Used: os, 30 minutes; dose mg/kg: Example 3 0,15; 7 1,25; 8 0,5; 10 0,5; arecoline HBr 200; ** p < 0,01 vs controls (all values)
Each record here notes measured variation of the body temperature.
Outcome Measure: variation of the body temperature

{"Compound": "CON=CC1=CCCNC1.Cl [Example 3]", "Outcome Measure": "variation of the body temperature", "Readout Value": "-1,5 °C"}
{"Compound": "CCCN1CCC=C(C=NOC)C1 [Example 8]", "Outcome Measure": "variation of the body temperature", "Readout Value": "-1,5 °C"}
{"Compound": "COC(=O)C1=CCCN(C)C1 [Arecoline HBr, reference compound]", "Outcome Measure": "variation of the body temperature", "Readout Value": "-1,1 °C"}
{"Compound": "CCN1CCC=C(C=NOC)C1.Cl [Example 7]", "Outcome Measure": "variation of the body temperature", "Readout Value": "-1,1 °C"}
{"Compound": "C=CCN1CCC=C(C=NOC)C1 [Example 10]", "Outcome Measure": "variation of the body temperature", "Readout Value": "-1,5 °C"}
